Hello, the source for this data is ChEMBL document CHEMBL3576835, in case you need it.

Test: Antiproliferative activity against human COLO205 cells assessed as inhibition of cell vaibility after 72 hrs by MTT assay
Type: functional, cell-based
Settings: COLO 205, 72 h
Each entry below carries its recorded pIC50.
Give only the number. pIC50 is defined as minus log10 of concentration in molar units.

Ask: May I ask what pIC50 has been recorded for `COc1cccc(N2C(=O)/C(=C/c3ccc(OCC(=O)Nc4ccc(C)cc4)cc3)N=C2c2ccccc2)c1` ?
Result: 5.03

Ask: May I ask what pIC50 has been recorded for `CNC(=O)c1cc(Oc2ccc(NC(=O)Nc3ccc(Cl)c(C(F)(F)F)c3)cc2)ccn1` ?
Result: 6.06

Ask: May I ask what pIC50 has been recorded for `COc1ccc(N2C(=O)/C(=C/c3ccc(OCC(=O)Nc4ccccc4Cl)cc3)N=C2c2ccccc2)cc1` ?
Result: 5.35

====

Target: Mitogen-activated protein kinase 3 (Homo sapiens, UniProt P27361)
Sequence (P27361 whole entry): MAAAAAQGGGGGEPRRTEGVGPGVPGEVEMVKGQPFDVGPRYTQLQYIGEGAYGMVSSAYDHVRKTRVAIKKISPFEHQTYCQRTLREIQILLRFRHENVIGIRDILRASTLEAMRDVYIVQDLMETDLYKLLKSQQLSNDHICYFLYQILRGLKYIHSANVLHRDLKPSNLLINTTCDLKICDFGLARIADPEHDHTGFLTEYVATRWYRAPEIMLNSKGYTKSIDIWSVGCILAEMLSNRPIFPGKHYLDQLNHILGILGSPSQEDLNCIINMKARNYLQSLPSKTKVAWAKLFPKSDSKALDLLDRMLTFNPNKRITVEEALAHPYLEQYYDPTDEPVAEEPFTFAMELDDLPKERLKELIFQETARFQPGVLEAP
Assay: Inhibition of ERK1 (unknown origin) using GFP-ATF2 as substrate after 1 hr by TR-FRET assay
assayEndpoint: IC50 (nM)
Record the value in nM, omitting the unit from your answer.

sampleSmiles: COc1ccc(N2C(=O)/C(=C/c3ccc(OCC(=O)Nc4ccc(Cl)cc4)cc3)N=C2c2ccccc2)cc1
tgt: Mitogen-activated protein kinase 3 (Homo sapiens, UniProt P27361)
IC50 (nM): 47
--
sampleSmiles: COc1cccc(N2C(=O)/C(=C/c3ccc(OCC(=O)Nc4ccc(Cl)cc4)cc3)N=C2c2ccccc2)c1
tgt: Mitogen-activated protein kinase 3 (Homo sapiens, UniProt P27361)
IC50 (nM): 95

Now look at this one.
Ask: May I ask what IC50 has been recorded for `COc1ccc(N2C(=O)/C(=C/c3ccc(OCC(=O)Nc4ccccc4C)cc3)N=C2c2ccccc2)cc1` ?
Result: 32

====

Molecular target: Mitogen-activated protein kinase 1 (Homo sapiens, UniProt P28482)
Sequence (P28482 whole entry): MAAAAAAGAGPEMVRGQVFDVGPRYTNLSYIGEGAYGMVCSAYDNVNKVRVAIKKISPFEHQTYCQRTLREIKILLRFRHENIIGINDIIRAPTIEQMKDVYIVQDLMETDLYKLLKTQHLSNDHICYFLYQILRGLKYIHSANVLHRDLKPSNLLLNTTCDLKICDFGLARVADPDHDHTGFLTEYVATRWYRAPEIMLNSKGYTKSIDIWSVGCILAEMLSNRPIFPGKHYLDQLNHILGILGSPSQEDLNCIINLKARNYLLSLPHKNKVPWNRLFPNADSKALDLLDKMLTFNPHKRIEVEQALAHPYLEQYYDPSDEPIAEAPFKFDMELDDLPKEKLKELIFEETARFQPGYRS
Assay: Inhibition of ERK2 (unknown origin) using GFP-ATF2 as substrate after 1 hr by TR-FRET assay
assayEndpoint: pIC50
Give only the number. pIC50 is defined as minus log10 of concentration in molar units.

Would you please look over these solved cases?
sampleSmiles: COc1ccc(N2C(=O)/C(=C/c3ccc(OCC(=O)Nc4cccc(Cl)c4)cc3)N=C2c2ccccc2)cc1
tgt: Mitogen-activated protein kinase 1 (Homo sapiens, UniProt P28482)
pIC50: 8.15
--
sampleSmiles: COc1cccc(N2C(=O)/C(=C/c3ccc(OCC(=O)Nc4ccccc4Cl)cc3)N=C2c2ccccc2)c1
tgt: Mitogen-activated protein kinase 1 (Homo sapiens, UniProt P28482)
pIC50: 8.28

Now look at this one.
Ask: May I ask what pIC50 has been recorded for `COc1ccc(N2C(=O)/C(=C/c3ccc(OCC(=O)Nc4ccccc4C)cc3)N=C2c2ccccc2)cc1` ?
Result: 7.64

====

Target: Mitogen-activated protein kinase 14 (Homo sapiens, UniProt Q16539)
Sequence (Q16539 whole entry): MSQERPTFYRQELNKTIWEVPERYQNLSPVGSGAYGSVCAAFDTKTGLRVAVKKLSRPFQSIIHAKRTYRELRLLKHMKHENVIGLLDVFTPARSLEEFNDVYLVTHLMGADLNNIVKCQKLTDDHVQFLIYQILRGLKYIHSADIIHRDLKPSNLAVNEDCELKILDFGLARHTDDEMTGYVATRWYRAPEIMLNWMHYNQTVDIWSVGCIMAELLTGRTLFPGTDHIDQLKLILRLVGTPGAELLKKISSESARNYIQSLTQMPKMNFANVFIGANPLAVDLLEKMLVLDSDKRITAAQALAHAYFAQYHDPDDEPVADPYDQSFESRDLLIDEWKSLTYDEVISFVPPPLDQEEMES
Assay: Inhibition of p38alpha MAP kinase (unknown origin) using GFP-ATF2 as substrate after 1 hr by TR-FRET assay
assayEndpoint: log10(IC50) (log10 of the value in nM)
The base-10 logarithm of IC50, taken with IC50 in nM, is what appears here.

Would you please look over these solved cases?
sampleSmiles: COc1cccc(N2C(=O)/C(=C/c3ccc(OCC(=O)Nc4cccc(Cl)c4)cc3)N=C2c2ccccc2)c1
tgt: Mitogen-activated protein kinase 14 (Homo sapiens, UniProt Q16539)
log10(IC50): 0.57
--
sampleSmiles: COc1ccc(N2C(=O)/C(=C/c3ccc(OCC(=O)Nc4ccccc4C)cc3)N=C2c2ccccc2)cc1
tgt: Mitogen-activated protein kinase 14 (Homo sapiens, UniProt Q16539)
log10(IC50): 1.75
--
sampleSmiles: COc1ccc(N2C(=O)/C(=C/c3ccc(OCC(=O)Nc4cccc(Cl)c4)cc3)N=C2c2ccccc2)cc1
tgt: Mitogen-activated protein kinase 14 (Homo sapiens, UniProt Q16539)
log10(IC50): 0.65
--
sampleSmiles: COc1cccc(N2C(=O)/C(=C/c3ccc(OCC(=O)Nc4cccc(C)c4)cc3)N=C2c2ccccc2)c1
tgt: Mitogen-activated protein kinase 14 (Homo sapiens, UniProt Q16539)
log10(IC50): 1.94
--
sampleSmiles: COc1ccc(N2C(=O)/C(=C/c3ccc(OCC(=O)Nc4ccc(Cl)cc4)cc3)N=C2c2ccccc2)cc1
tgt: Mitogen-activated protein kinase 14 (Homo sapiens, UniProt Q16539)
log10(IC50): 1.64
--
sampleSmiles: COc1ccc(N2C(=O)/C(=C/c3ccc(OCC(=O)Nc4ccccc4Cl)cc3)N=C2c2ccccc2)cc1
tgt: Mitogen-activated protein kinase 14 (Homo sapiens, UniProt Q16539)
log10(IC50): 0.67

Ask: May I ask what log10(IC50) has been recorded for `COc1ccc(N2C(=O)/C(=C/c3ccc(OCC(=O)Nc4ccccc4OC)cc3)N=C2c2ccccc2)cc1` ?
Result: 1.53

Ask: May I ask what log10(IC50) has been recorded for `COc1cccc(N2C(=O)/C(=C/c3ccc(OCC(=O)Nc4ccccc4OC)cc3)N=C2c2ccccc2)c1` ?
Result: 1.73

Ask: May I ask what log10(IC50) has been recorded for `COc1cccc(N2C(=O)/C(=C/c3ccc(OCC(=O)Nc4ccccc4C)cc3)N=C2c2ccccc2)c1` ?
Result: 1.82

Ask: May I ask what log10(IC50) has been recorded for `COc1ccc(NC(=O)COc2ccc(/C=C3\N=C(c4ccccc4)N(c4cccc(OC)c4)C3=O)cc2)cc1` ?
Result: 0.63

Ask: May I ask what log10(IC50) has been recorded for `COc1ccc(N2C(=O)/C(=C/c3ccc(OCC(=O)Nc4ccccc4)cc3)N=C2c2ccccc2)cc1` ?
Result: 2.55

Ask: May I ask what log10(IC50) has been recorded for `COc1cccc(N2C(=O)/C(=C/c3ccc(OCC(=O)Nc4ccccc4)cc3)N=C2c2ccccc2)c1` ?
Result: 1.54
